Tested on: Pseudomonas aeruginosa ATCC 27853
Assay type: cell-based
applied_conditions: ATCC 27853
Where a SMILES comes first, the peptide text is derived from it. Bridges are numbered along the chain shown (N, C = ends). [ ]: non-standard residue; d: D form. The star is where a group is joined. Heptanoyl(6-Me) = CC(C)CCCCC(=O)*; Dab = NCC[C@H](N)C(=O)O
Entries annotated with measured MIC P. aeruginosa ATCC 27853
Hi! Could you send only the number? It should be in µg/mL, unit omitted.

I'm curious: which MIC P. aeruginosa ATCC 27853 was measured for CC(C)CCCCC(=O)N[C@@H](CCN)C(=O)N[C@H](C(=O)N[C@@H](CCN)C(=O)N[C@H]1CCNC(=O)[C@H]([C@@H](C)O)NC(=O)[C@H](CCN)NC(=O)[C@H](CCN)NC(=O)[C@H](CC(C)C)NC(=O)[C@@H](CC(C)C)NC(=O)[C@H](CCN)NC1=O)[C@@H](C)O [Compound 74] ({Heptanoyl(6-Me)}-[Dab]T[Dab][Dab][Dab][dL]L[Dab][Dab]T; lactam 4-C) tested on Pseudomonas aeruginosa ATCC 27853?
2

---

Tested on: Acinetobacter baumannii ATCC 19606
Assay type: cell-based
applied_conditions: ATCC 19606
Where a SMILES comes first, the peptide text is derived from it. Bridges are numbered along the chain shown (N, C = ends). [ ]: non-standard residue; d: D form. The star is where a group is joined. dPhe(4-tBu) = CC(C)(C)c1ccc(C[C@@H](N)C(=O)O)cc1; dPhe(4-CF3) = N[C@H](Cc1ccc(C(F)(F)F)cc1)C(=O)O; Octanoyl(7-Me) = CC(C)CCCCCC(=O)*; X7 = Cc1ccc(Oc2ccc(C(=O)*)cc2)cc1; X2 = CC[C@H](C)CCCCC(=O)*; Octanoyl = CCCCCCCC(=O)*; Dab = NCC[C@H](N)C(=O)O
Below: a set of entries, each annotated with reported MIC A. baumannii ATCC 19606.
Reply with just the number (in µg/mL).

A selection of reference data follows.
{"compound": "CC[C@H](C)CCCCC(=O)N[C@@H](CCN)C(=O)N[C@H](C(=O)N[C@@H](CCN)C(=O)N[C@H]1CCNC(=O)[C@H]([C@@H](C)O)NC(=O)[C@H](CCN)NC(=O)[C@H](CCN)NC(=O)[C@H](CC(C)C)NC(=O)[C@@H](Cc2ccc(C(C)(C)C)cc2)NC(=O)[C@H](CCN)NC1=O)[C@@H](C)O [Compound 27] (X2-[Dab]T[Dab][Dab][Dab][dPhe(4-tBu)]L[Dab][Dab]T; lactam 4-C)", "readout_type": "MIC A. baumannii ATCC 19606", "recorded_result": 8}
{"compound": "CC(C)CCCCCC(=O)N[C@@H](CCN)C(=O)N[C@H](C(=O)N[C@@H](CCN)C(=O)N[C@H]1CCNC(=O)[C@H]([C@@H](C)O)NC(=O)[C@H](CCN)NC(=O)[C@H](CCN)NC(=O)[C@H](CC(C)C)NC(=O)[C@@H](CC(C)C)NC(=O)[C@H](CCN)NC1=O)[C@@H](C)O [Compound 86] ({Octanoyl(7-Me)}-[Dab]T[Dab][Dab][Dab][dL]L[Dab][Dab]T; lactam 4-C)", "readout_type": "MIC A. baumannii ATCC 19606", "recorded_result": 1}

Please look up its MIC A. baumannii ATCC 19606: Cc1ccc(Oc2ccc(C(=O)N[C@@H](CCN)C(=O)N[C@H](C(=O)N[C@@H](CCN)C(=O)N[C@H]3CCNC(=O)[C@H]([C@@H](C)O)NC(=O)[C@H](CCN)NC(=O)[C@H](CCN)NC(=O)[C@H](CC(C)C)NC(=O)[C@@H](Cc4ccccc4)NC(=O)[C@H](CCN)NC3=O)[C@@H](C)O)cc2)cc1 [Compound 9] (X7-[Dab]T[Dab][Dab][Dab][dF]L[Dab][Dab]T; lactam 4-C)
4

// MIC A. baumannii ATCC 19606 lookup, key: CC[C@H](C)CCCCC(=O)N[C@@H](CCN)C(=O)N[C@H](C(=O)N[C@@H](CCN)C(=O)N[C@H]1CCNC(=O)[C@H]([C@@H](C)O)NC(=O)[C@H](CCN)NC(=O)[C@H](CCN)NC(=O)[C@H](CC(C)C)NC(=O)[C@@H](Cc2ccc(C(F)(F)F)cc2)NC(=O)[C@H](CCN)NC1=O)[C@@H](C)O [Compound 23] (X2-[Dab]T[Dab][Dab][Dab][dPhe(4-CF3)]L[Dab][Dab]T; lactam 4-C)
1

Which measured MIC A. baumannii ATCC 19606 value corresponds to CCCCCCCC(=O)N[C@@H](CCN)C(=O)N[C@H](C(=O)N[C@@H](CO)C(=O)N[C@H]1CCNC(=O)[C@H]([C@@H](C)O)NC(=O)[C@H](CCN)NC(=O)[C@H](CCN)NC(=O)[C@H](CC(C)C)NC(=O)[C@@H](Cc2ccccc2)NC(=O)[C@H](CCN)NC1=O)[C@@H](C)O [Compound 54] (Octanoyl-[Dab]TS[Dab][Dab][dF]L[Dab][Dab]T; lactam 4-C) ?
0.5

Data credit: patent US20190315806A1
